The measurements presented in this section are drawn from paper PMC9482650.

- Experimental Target: MAGI1_2, Q96QZ7
- Sequence (Q96QZ7 456-580): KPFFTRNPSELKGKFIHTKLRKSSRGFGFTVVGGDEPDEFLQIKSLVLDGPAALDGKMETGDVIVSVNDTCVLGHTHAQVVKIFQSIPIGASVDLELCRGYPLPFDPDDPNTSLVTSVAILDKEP
- Assay: holdup assay
- Design: key: below the threshold = too weak to quantify, mostly under pKd 3.1 to 4
- Experimental Conditions: plain residues with an end cap or a label only (N-terminal biotin on a linker: ado-ado)
Measurement Kind: pKd

Ask | Report pKd for EKKTLIGIKL [GOT1L1, Q8NHS2] please.
Reply | below the threshold

Ask | Then what about the binder PRISRSQSEL [CCDC134, Q9H6E4] ?
Reply | 4.13

Ask | Then what about the binder YRLAQESGLV [ABCC6, O95255] ?
Reply | below the threshold

Ask | Then what about the binder QKNRKAQEDL [CES3, Q6UWW8] ?
Reply | below the threshold
